run.description: MTT cell viability / cytotoxicity on normal fibroblasts
Format: cell-based, mouse
assay.setup: mouse, NCTC clone 929 (L929) mouse fibroblast cells, 12.5 µg/mL, 24h
Description: Merck chemicals were utilized. Untreated cells were used as control, considered 100% viable cells.
We begin with a simple list: items and their reported viability at 24 h, 12.5 µg/mL.
Please respond with the number in % and leave the unit unwritten.

INSERT INTO measurements (compound, unit_spec, measured) VALUES
  ('Cc1nn(CNc2cccc(Cl)c2)c(C)c1[N+](=O)[O-] [4e]', '%', 97.8);

Now consider a different compound.
Fill in the blank: the reported viability at 24 h, 12.5 µg/mL of Cc1nn(CNc2ccc(Br)cc2)c(C)c1[N+](=O)[O-] [4c] is ____. 95.6
